test target: CIB1 and αIIb interaction (CIB1-GST : F-αIIb peptide) (Homo sapiens)
Construct: made in house; host or cells: BL-21 plus RIL cells (E. coli)
assay procedure: FP assay, 1536-well qHTS format (primary and confirmatory screen)
Type: binding
condition set: qHTS primary screen of LOPAC/NPACT libraries; negative = inhibition
measurement label: Efficacy (%)

INSERT INTO assay_data (compound, test_target, measurement_label, reported_measurement) VALUES
  ('CC(C)(Sc1ccc(CCN(CCCCC2CCCCC2)C(=O)NC2CCCCC2)cc1)C(=O)O', 'CIB1 and αIIb interaction (CIB1-GST : F-αIIb peptide) (Homo sapiens)', 'Efficacy (%)', '-28%'),
  ('CN(C)CC/C=C1/c2ccccc2Sc2cc(Cl)ccc21.Cl', 'CIB1 and αIIb interaction (CIB1-GST : F-αIIb peptide) (Homo sapiens)', 'Efficacy (%)', '-13%'),
  ('CO/N=C(\C(=O)N[C@@H]1C(=O)N2C(C(=O)O)=C(CSc3nc(=O)c(O)nn3C)CSC12)c1csc(N)n1 (stereo partly shown)', 'CIB1 and αIIb interaction (CIB1-GST : F-αIIb peptide) (Homo sapiens)', 'Efficacy (%)', '-18%'),
  ('CN(C)CC1CCn2c(c(C3=C(c4cn(C)c5ccccc45)C(=O)NC3=O)c3ccccc32)C1.Cl (stereo not shown)', 'CIB1 and αIIb interaction (CIB1-GST : F-αIIb peptide) (Homo sapiens)', 'Efficacy (%)', '-28%'),
  ('N.N.N.N.N.N.N.N.N.N.N.N.N.N.O.O.[Ru].[Ru].[Ru]', 'CIB1 and αIIb interaction (CIB1-GST : F-αIIb peptide) (Homo sapiens)', 'Efficacy (%)', '-26%'),
  ('CC1(C)CCC(CN2CCN(c3ccc(C(=O)NS(=O)(=O)c4ccc(NCC5CCOCC5)c([N+](=O)[O-])c4)c(Oc4cnc5[nH]ccc5c4)c3)CC2)=C(c2ccc(Cl)cc2)C1', 'CIB1 and αIIb interaction (CIB1-GST : F-αIIb peptide) (Homo sapiens)', 'Efficacy (%)', '-26%'),
  ('COc1ccnc(C[S+]([O-])c2nc3cc(OC(F)F)ccc3[nH]2)c1OC (stereo not shown)', 'CIB1 and αIIb interaction (CIB1-GST : F-αIIb peptide) (Homo sapiens)', 'Efficacy (%)', '-26%');

###

test target: GST-CIB1 : F-scrambled peptide (Homo sapiens)
Construct: made in house; host or cells: BL-21 plus RIL cells (E. coli)
assay procedure: FP scrambled-peptide counter screen, 1536-well format
Format: binding
condition set: scrambled-peptide counterscreen, qHTS curve class
The compounds listed here are annotated with their COUNTERSCREEN Curve Class.
measurement label: COUNTERSCREEN Curve Class

INSERT INTO assay_data (structure_notation, reported_measurement) VALUES
  ('O=C(CN(c1cccc(Br)c1)S(=O)(=O)c1ccccc1)NN=CC1=CC(=[N+]([O-])O)C=CC1=O.O=C(O)C(F)(F)F', 4),
  ('O=C(Cc1ccc(Cl)c(Cl)c1)Nc1ccc(S(=O)(=O)Nc2nncs2)cc1.O=C(O)C(F)(F)F', 4),
  ('Cc1ccc(S(=O)(=O)Nc2cnccc2C(=O)Nc2nc(-c3nc4ccccc4s3)cs2)cc1.O=C(O)C(F)(F)F', 4);

###

test target: GST-CIB1 : F-scrambled peptide (Homo sapiens)
Construct: made in house; host or cells: BL-21 plus RIL cells (E. coli)
assay procedure: FP scrambled-peptide counter screen, 1536-well format
Type: binding
condition set: counterscreen; read-out: IC50 [μM] (counterscreen)
Classify by IC50. Ranges: low bin: < 10 µM; mid bin: ≥ 10 µM and < 60 µM; high bin: ≥ 60 µM

INSERT INTO assay_data (molecule, group) VALUES
  ('O=c1[nH]c(=O)c2nc3ccccc3nc2[nH]1', 'mid bin'),
  ('O=C(Nc1nc(-c2ccccc2)cs1)c1ccncc1NS(=O)(=O)c1cccs1.O=C(O)C(F)(F)F', 'high bin'),
  ('C=C1C(=O)O[C@@H]2[C@H]3C(C)=CC(=O)C3=C(C)[C@@H](OC(=O)/C(C)=C\C)[C@H](O)[C@@H]12', 'low bin'),
  ('C=CCNc1oc(-c2ccc(Cl)cc2)nc1C#N.O=C(O)C(F)(F)F', 'mid bin'),
  ('Cc1cc(SCc2sc(-c3ccc(Cl)c(Cl)c3)nc2C)ccc1OCC(=O)O.O=C(O)C(F)(F)F', 'high bin'),
  ('C=CC1=C(C)c2cc3[nH]c(cc4nc(cc5[nH]c(cc1n2)c(C)c5CCC(=O)O)C(CCC(=O)O)=C4C)c(C)c3C=C', 'mid bin'),
  ('Cl.N=C(NCCCCCCNC(=N)NC(=N)Nc1ccc(Cl)cc1)NC(=N)Nc1ccc(Cl)cc1', 'mid bin'),
  ('CC[C@@H](CO)NC(=O)[C@@H]1C=C2c3cccc4c3c(cn4C)C[C@H]2N(C)C1.O=C(O)/C=C\C(=O)O', 'high bin'),
  ('CC(=O)NC(Cc1c[nH]c2ccccc(=O)c12)C(=O)O (stereo not drawn)', 'high bin'),
  ('CCOC(=O)c1cc(-c2ccco2)nc2c1c(C)nn2CCC#N.O=C(O)C(F)(F)F', 'mid bin'),
  ('COc1ccc(C(=O)c2no[n+]([O-])c2C(=O)c2ccc(OC)cc2)cc1.O=C(O)C(F)(F)F', 'low bin'),
  ('CN(C)c1ccc(NC(=S)N/N=C2\C(=O)Nc3ccccc32)cc1.O=C(O)C(F)(F)F', 'mid bin'),
  ('COP(=S)(OC)SCN1C(=O)c2ccccc2C1=O', 'mid bin'),
  ('CNc1ccc([N+](=O)[O-])c(Nc2ccc3[nH]ncc3c2)n1', 'low bin'),
  ('Cc1cc2c(C(C)C)c(O)c(O)c(C=O)c2c(O)c1-c1c(C)cc2c(C(C)C)c(O)c(O)c(C=O)c2c1O', 'low bin');

###

test target: CIB1 and αIIb interaction (CIB1-GST : F-αIIb peptide) (Homo sapiens, UniProt Q99828)
Construct: made in house; host or cells: BL-21 plus RIL cells (E. coli)
assay procedure: FP assay, 1536-well qHTS format (primary and confirmatory screen)
Format: binding
condition set: Table S3, confirmatory screen; negative = inhibition
measurement label: Efficacy (%) (confirmatory screen)

INSERT INTO measurements (compound, reported_measurement) VALUES
  ('CCCCCCCCn1cc(CC(N)=O)c2cc(-c3cccc(C)c3)ccc21.O=C(O)C(F)(F)F [NCGC00348156-02]', -95),
  ('CN(C)CC1CCCN(C2CCN(C(=O)c3cccc(-c4cc(O)c5ncccc5c4)c3)CC2)C1.O=C(O)C(F)(F)F (stereo not shown) [NCGC00247737-01]', -41),
  ('O=C(NC(c1ccco1)c1cc(Cl)c2cccnc2c1O)c1cccs1.O=C(O)C(F)(F)F (stereo not shown) [NCGC00188375-01]', 0),
  ('CN(C(=O)c1cccs1)c1cccnc1.O=C(O)C(F)(F)F [NCGC00241518-01]', -90);

###

test target: CIB1 and αIIb interaction (CIB1-GST : F-αIIb peptide) (Homo sapiens, UniProt Q99828)
Construct: made in house; host or cells: BL-21 plus RIL cells (E. coli)
Sequence (Q99828 1-191): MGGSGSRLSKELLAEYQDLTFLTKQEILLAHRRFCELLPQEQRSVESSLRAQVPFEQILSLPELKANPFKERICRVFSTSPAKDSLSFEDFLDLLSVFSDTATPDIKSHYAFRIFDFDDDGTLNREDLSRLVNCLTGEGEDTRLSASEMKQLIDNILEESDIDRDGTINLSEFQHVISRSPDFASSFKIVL
assay procedure: FP assay, 1536-well qHTS format (primary and confirmatory screen)
Assay type: binding
condition set: qHTS primary screen hits, Table S2; negative = inhibition
The molecules listed here are annotated with their Efficacy (%).
measurement label: Efficacy (%)

INSERT INTO assay_data (molecule, reported_measurement) VALUES
  ('CN1CCN(c2ccc(NC(=O)CN(C)Cc3c(O)ccc4ccccc34)cc2)CC1.O=C(O)C(F)(F)F [NCGC00229739-01]', '-49%'),
  ('O=C(Nc1nc(-c2ccccc2)cs1)c1ccncc1NS(=O)(=O)c1ccc(F)cc1.O=C(O)C(F)(F)F [NCGC00344931-02]', '-38%'),
  ('CN1CCN(c2ccc(Nc3c4ccccc4nc4ccccc34)cc2)CC1.O=C(O)C(F)(F)F [NCGC00167823-03]', '-25%'),
  ('CC(=O)NC(c1ccco1)c1cc(Cl)c2ccc(N(C)C)nc2c1O (stereo not shown) [NCGC00183714-01]', '-39%');

###

test target: CIB1 and αIIb interaction (CIB1-GST : F-αIIb peptide) (Homo sapiens, UniProt Q99828)
Construct: made in house; host or cells: BL-21 plus RIL cells (E. coli)
assay procedure: FP assay, 1536-well qHTS format (primary and confirmatory screen)
Type: binding
condition set: qHTS FP screen hits, Table S2; one class per curve where COUNT > 1; negative sign = inhibitory curve
measurement label: Curve Class

INSERT INTO results (compound, reported_measurement) VALUES
  ('C=C1C(OC(=O)/C(C)=C\C)[C@@]23CCC4[C@@](C)(CCC[C@@]4(C)C(=O)O)C2CC[C@H]1C3OC(C)=O (some centres unmarked)', -2.2),
  ('Br.CCCCCCCCCCCCCCCC[N+](C)(C)C.[Br-]', -2.2),
  ('CCc1nnc(NS(=O)(=O)c2ccc(NC(=S)NC(=O)/C=C/c3ccc(F)cc3)cc2)s1', -1.2),
  ('Cc1coc2c1C(=O)C(=O)c1c-2ccc2c1CCCC2(C)C', -2.2),
  ('O=C(O)C(F)(F)F.Oc1cccc2cc(C3CC3)cnc12', -1.2),
  ('CCc1oc2ccccc2c1C(=O)c1cc(Br)c(O)c(Br)c1', -2.2),
  ('C=CCNc1oc(-c2cccc3ccccc23)nc1C#N.O=C(O)C(F)(F)F', -1.2),
  ('CN(C)CC1CCCN(C2CCN(C(=O)c3cccc(-c4cc(O)c5ncccc5c4)c3)CC2)C1.O=C(O)C(F)(F)F (centres unmarked)', -1.2);
